TGT: Insulin-like growth factor 1 receptor (Homo sapiens)
EXPERIMENTAL_CONDITIONS: at 1 µM
Field: residual activity. Provide a value for each of the molecules that follow.
Entry format: amount then unit.

Reported residual activity for Insulin-like growth factor 1 receptor (Homo sapiens), given COc1ccc2c(c1)c(C1=C(c3c[nH]c4ccccc34)C(=O)NC1=O)cn2CCCN(C)C ?
134%

Reported residual activity for Insulin-like growth factor 1 receptor (Homo sapiens), given N#C/C(=C\c1ccc(O)c(O)c1)C(=O)NCc1ccccc1 ?
144%

Reported residual activity for Insulin-like growth factor 1 receptor (Homo sapiens), given O=C1Nc2ccc(Cl)cc2/C1=C/c1cc(Cl)c(O)c(Cl)c1 ?
126%

Reported residual activity for Insulin-like growth factor 1 receptor (Homo sapiens), given O=C1NC(=O)C(c2cn(CCCO)c3ncccc23)=C1c1cnccn1 ?
138%

Reported residual activity for Insulin-like growth factor 1 receptor (Homo sapiens), given O=C1NC(=O)c2c1c1c3ccccc3[nH]c1n1cncc21 ?
9%

Reported residual activity for Insulin-like growth factor 1 receptor (Homo sapiens), given N#C/C(=C1/Nc2ccccc2S1)c1ccnc(NCCc2cccnc2)n1 ?
143%

Reported residual activity for Insulin-like growth factor 1 receptor (Homo sapiens), given CC(C)(C)c1nc2c3ccc(F)cc3c3c(=O)[nH]ccc3c2[nH]1 ?
119%

Reported residual activity for Insulin-like growth factor 1 receptor (Homo sapiens), given O=C1NC(=O)C(c2cn(CCCn3ccnc3)c3ccccc23)=C1Nc1ccccc1 ?
140%

Reported residual activity for Insulin-like growth factor 1 receptor (Homo sapiens), given O=C(CCCc1ccc(-c2ccccc2F)cc1)Nc1ccc(O)cc1 ?
104%

Reported residual activity for Insulin-like growth factor 1 receptor (Homo sapiens), given COc1cc2c(cc1OC)-c1n[nH]c(Nc3cccc(F)c3)c1C2 ?
105%

Reported residual activity for Insulin-like growth factor 1 receptor (Homo sapiens), given Oc1cccc(-c2nc(N3CCOCC3)c3oc4ncccc4c3n2)c1 ?
131%

Reported residual activity for Insulin-like growth factor 1 receptor (Homo sapiens), given CCCC(=O)Oc1ccc2[nH]c(C(=O)c3cc4ccccc4[nH]3)cc2c1 ?
143%

Reported residual activity for Insulin-like growth factor 1 receptor (Homo sapiens), given CCOC(=O)c1c(C)[nH]c(/C=C2\C(=O)Nc3ccccc32)c1C ?
119%

Reported residual activity for Insulin-like growth factor 1 receptor (Homo sapiens), given CCN(CC)CCNC(=O)c1c(C)[nH]c(/C=C2\C(=O)Nc3ccc(Cl)cc32)c1C ?
135%

Reported residual activity for Insulin-like growth factor 1 receptor (Homo sapiens), given CCCCc1c(-c2ccc(OC)cc2)[nH]c2nccnc12 ?
109%

Reported residual activity for Insulin-like growth factor 1 receptor (Homo sapiens), given Cn1sc(=O)n(Cc2ccccc2)c1=O ?
93%
